From: ChEMBL document CHEMBL1201862

- Tested on: EKVX
- Assay text: NCI tumour cell line growth inhibition, 48 h
The source made the active and inactive calls. Rule as the data show it: active = GI50 up to about 1.1 µM and inactive = higher.
Reported GI50 values follow for various compounds
Value kind: GI50

>>> recorded_measurement("CCOC(=O)/C(C(C)=O)=C(\\OC(C)=O)c1ccncc1C(=O)O")
"> 100 µM (inactive)"
>>> recorded_measurement("CCOC(=O)/C(=C\\NC(C)(C)C)c1nc2ccccc2o1")
"> 100 µM (inactive)"
>>> recorded_measurement("C[C@]12CCC(=O)C=C1CC[C@@H]1C2CC[C@]2(C)c3nn(-c4ccccc4)nc3CC12 (some centres undefined)")
"> 100 µM (inactive)"
>>> recorded_measurement("O=S1(=O)CCCS(=O)(=O)C(c2ccccc2)=C1c1ccccc1")
"> 100 µM (inactive)"
>>> recorded_measurement("Clc1ccc2nc3c(c(-c4ccccc4)nn3-c3ccccc3)c(-c3ccccc3)c2c1")
"> 100 µM (inactive)"
>>> recorded_measurement("c1ccc2c(c1)CC1COc3ccccc3C1O2 (centres undefined)")
"48.3 µM (inactive)"
>>> recorded_measurement("C=CCOCCC(CC=C)C(=O)CC(=O)OC (centres undefined)")
"> 100 µM (inactive)"
>>> recorded_measurement("COc1nc2c(c(=O)n1C)NC(C(O)C(O)CO)C=N2 (centres undefined)")
"> 10 µM (inactive)"
>>> recorded_measurement("N#CC1=C(O)NC(O)=C(C#N)C1c1c(Cl)cccc1Cl")
"40.7 µM (inactive)"
